So I've got a bunch of compounds here, and I need their z-score values.
# PROTOCOL_DESCRIPTION: S. cerevisiae growth modulation with rapamycin, primary screen, strain BY4716, OD600, 96 h (AID 1091); also: test concentration not given here
# ASSAY_CONDITIONS: higher = more signal, called active from +8 up or from −8 down
Active and inactive are the calls of the source.

For "CCCNC(=O)[C@@]1(Sc2ccc(C)cc2)CC(=O)N(Cc2cc(C(F)(F)F)cc(C(F)(F)F)c2)[C@@H]1c1ccc(CO)cc1I" , what is its reported z-score?
-0.894 (inactive)

Query (compound): "C=C(COC)/C(=C/C[C@H](OC(C)=O)c1cccc(OCCO)c1)c1cc(C(=O)OC)ccc1OC" ; field requested: z-score
-4.33 (inactive)

Which measured z-score value corresponds to "Cc1ccc(S[C@]2(C(=O)NCC(C)C)CC(=O)N(C(C)C)[C@@H]2c2ccc(CO)cc2)cc1" ?
-0.942 (inactive)

Which z-score value is on record for "COC(=O)[C@@]1(CCC(=O)OC(C)(C)C)COC(c2ccc(OCCCO)cc2)=N1" ?
-0.752 (inactive)

Endpoint output: z-score of "C=CCC1(CC=C)C[C@H]2CO[C@H](c3ccc(OC)cc3)N2C1=O" . Value?
-0.484 (inactive)

What value of z-score has been reported for the following compound? CC1CC/C=C\[C@H]2OC34C=CCN(C(C)C)C(=O)[C@H]3N(C(CO)C(C)C)C(=O)[C@@H]4C2C(=O)O1 (some centres undefined)
-0.631 (inactive)

Quick check: z-score of "CCOC(=O)C[C@H]1[C@H](OC(=O)c2ccc(-c3ccccc3)cc2)[C@@H](NC(=O)C2CCCCC2)c2cc(OCCCO)ccc2N1C(=O)c1ccc2ccccc2n1" ?
-0.327 (inactive)

For the compound shown here, "C=C(COC)C(=O)CC[C@@H](OC(=O)c1ccccc1-c1ccccc1C(=O)O)c1cccc(OCCO)c1" , give the reported z-score.
-0.409 (inactive)

Which value of z-score has been reported for "COc1ccc([Si](C)(C)[C@H]2[C@H](CC(=O)N(CCO)Cc3ccccc3)O[C@@]3(C(=O)N(Cc4ccc(N5CCC5=O)cc4)c4ccccc43)[C@@H]2C)cc1" in the records?
1.96 (inactive)
